- ASSAY REMARKS: HCT116 colon cancer cell growth inhibition, primary screen, CellTiter-Glo luminescence, NPC library (AID 1117342)
- CONDITIONS: at 20 µM (top of the series)
Measured inhibition of viability accompanies every entry in the list below.
ENDPOINT NAME: inhibition of viability (%)

INSERT INTO measurements (molecule, unit, endpoint_result) VALUES
  ('CCCOc1ccc(C(=O)OCCN(CC)CC)cc1N', '%', 74.2),
  ('C[C@]12CC[C@@H]3c4ccc(O)cc4CC[C@H]3[C@@H]1C[C@@H](O)[C@@H]2O', '%', 4.67),
  ('COc1ccccc1N1CCN(CC(O)COc2cccc3ccccc23)CC1 (stereo unspecified)', '%', 64.7),
  ('Nc1nc(N)nc(-c2cc(Cl)ccc2Cl)n1', '%', -27.9),
  ('C=CCc1ccccc1OCC(O)CNC(C)C (stereo unspecified)', '%', 34.3),
  ('Cn1c(=O)c2c(ncn2CCO)n(C)c1=O', '%', -8),
  ('Cc1ccsc1/C=C/C1=NCCCN1C', '%', 39.5),
  ('CN(CCCN1c2ccccc2CCc2ccccc21)CC(=O)c1ccc(Cl)cc1', '%', 33.2),
  ('CN(C)/N=N/c1nc[nH]c1C(N)=O', '%', -2.45),
  ('C=CCSCC1Nc2cc(Cl)c(S(N)(=O)=O)cc2S(=O)(=O)N1 (stereo unspecified)', '%', 3.27),
  ('CCOC(=O)c1ccc(N)cc1', '%', 7.6),
  ('CC(C)COCC(CN(Cc1ccccc1)c1ccccc1)N1CCCC1 (stereo unspecified)', '%', 105),
  ('NCCCC[C@H](N[C@@H](CCc1ccccc1)C(=O)O)C(=O)N1CCC[C@H]1C(=O)O', '%', -5.23),
  ('CC[N+](C)(CC)CCOC(=O)C(O)(c1ccccc1)C1CCCCC1 (stereo unspecified)', '%', 0.4),
  ('O=C1NCC2(CCN(CCc3ccccc3)CC2)O1', '%', 8.9),
  ('O=C(O)CCC(=O)c1ccc(-c2ccccc2)cc1', '%', 12.7),
  ('Clc1ccc(C(c2ccccc2Cl)C(Cl)Cl)cc1 (stereo unspecified)', '%', 88.6),
  ('Brc1c(NC2=NCCN2)ccc2nccnc12', '%', 15.1),
  ('Cc1cc(C)cc(OCC2CNC(=O)O2)c1 (stereo unspecified)', '%', 3.1),
  ('COc1ccc2c(c1)c(CC(=O)OCC(=O)O)c(C)n2C(=O)c1ccc(Cl)cc1', '%', 12.8),
  ('O=P(O)(O)C(O)(Cc1cccnc1)P(=O)(O)O', '%', 5.33),
  ('COC(=O)N/N=C/c1c[n+]([O-])c2ccccc2[n+]1[O-]', '%', -3),
  ('Nc1ccc(S(=O)(=O)NC(=O)c2ccccc2)cc1', '%', 0.2),
  ('COCc1c(C(C)C)nc(C(C)C)c(/C=C/[C@@H](O)C[C@@H](O)CC(=O)O)c1-c1ccc(F)cc1', '%', 112),
  ('CCCCOc1ccc(C(=O)CCN2CCCCC2)cc1', '%', 59.9),
  ('CC(CN(C)C)CN1c2ccccc2CCc2ccccc21 (stereo unspecified)', '%', 55.4);

###

- ASSAY REMARKS: drug combination growth inhibition, ovarian cancer – cell-based, oncology-focused library, rucaparib conditional, profiling panel (AID 1508598)
- CONDITIONS: patient-derived ovarian cancer cells, CellTiter-Glo viability, 144 h; at 0.0195 µM; OCI-C5x cells; without rucaparib; stronger effect = lower value
ENDPOINT NAME: viability (%)

INSERT INTO assay_data (molecule, endpoint_name, endpoint_result) VALUES
  ('COC(=O)Nc1nc2ccc(C(=O)c3cccs3)cc2[nH]1', 'viability', 74),
  ('CC(c1cc2ccccc2s1)N(O)C(N)=O (stereo unspecified)', 'viability', 125),
  ('CCc1c2c(nc3ccc(OC(=O)N4CCC(N5CCCCC5)CC4)cc13)-c1cc3c(c(=O)n1C2)COC(=O)[C@]3(O)CC', 'viability', 124),
  ('Cc1nc2ccc(CN(C)c3ccc(C(=O)N[C@@H](CCC(=O)O)C(=O)O)s3)cc2c(=O)[nH]1', 'viability', 17.1),
  ('CC[C@@]1(O)C(=O)OCc2c1cc1n(c2=O)Cc2cc3c(CN(C)C)c(O)ccc3nc2-1', 'viability', 46.1),
  ('COc1cc2c(Nc3ccc(Br)cc3F)ncnc2cc1OCC1CCN(C)CC1', 'viability', 118),
  ('CC(C)(C#N)c1cc(Cn2cncn2)cc(C(C)(C)C#N)c1', 'viability', 107),
  ('COc1ccccc1OCC(O)CN1CCN(CC(=O)Nc2c(C)cccc2C)CC1 (stereo unspecified)', 'viability', 107),
  ('N#Cc1ccc(C(c2ccc(C#N)cc2)n2cncn2)cc1', 'viability', 112),
  ('Cc1nc(-c2ccc(OCC(C)C)c(C#N)c2)sc1C(=O)O', 'viability', 110),
  ('CN(Cc1cnc2nc(N)nc(N)c2n1)c1ccc(C(=O)N[C@@H](CCC(=O)O)C(=O)O)cc1', 'viability', 103);

###

- ASSAY REMARKS: inhibition of endothelial tube formation, primary screen, imaging, VEGF stimulated, CD31 staining, tube area, NPC library (AID 1117340)
- CONDITIONS: VEGF-stimulated ADSC/ECFC co-culture, at 10 µM
Calls of active or inactive are those of the source.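 Rule for the calls: active = compound that reduces growth-factor-driven endothelial tube area in a mixed cell culture, no cutoff stated; inactive = the rest.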
Labels: true for active, false for inactive

INSERT INTO assay_data (compound, label) VALUES
  ('CCOC(=O)C(C)(C)Oc1ccc(Cl)cc1', 'false'),
  ('Nc1ncnc2nc[nH]c12', 'false'),
  ('Cc1cc(C(C)(C)C)c(O)c(C(C)(C)C)c1', 'false'),
  ('O=C(O)c1ccc(S(=O)(=O)N(Cl)Cl)cc1', 'false'),
  ('Nc1ccc(S(N)(=O)=O)cc1', 'false'),
  ('Nc1c2c(nc3c1CCC3)CCCC2', 'false'),
  ('O=C1C(=O)c2ccccc2C(O)=C1C1CCC(c2ccc(Cl)cc2)CC1 (centres undefined)', 'true'),
  ('CN1CCN2c3ccccc3Cc3ccccc3C2C1 (centres undefined)', 'false'),
  ('Cc1cc(C2CCCCC2)n(O)c(=O)c1', 'true');

###

- ASSAY REMARKS: BT084 cell growth, single and combined drugs, ICGC_MB145, cisplatin and BGB IC40 combos (AID 1671461);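 also: cells exposed to drugs for 96 hours; 0% = vehicle DMSO and 100% = high DMSO full killing control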
- CONDITIONS: BT084 medulloblastoma cells, drug combinations, single agent, at 5 µM, stronger effect = higher value
If the reported inhibition equals or exceeds -20%, assign label 1. If not, assign label 0.

INSERT INTO measurements (smiles, label) VALUES
  ('Cc1nc2ccc(CN(C)c3ccc(C(=O)N[C@@H](CCC(=O)O)C(=O)O)s3)cc2c(=O)[nH]1', 'label 1'),
  ('O=NN(CCCl)C(=O)NCCCl', 'label 1'),
  ('Nc1nc(=S)c2[nH]cnc2[nH]1', 'label 1'),
  ('Cc1ccnc2c1NC(=O)c1cccnc1N2C1CC1', 'label 0'),
  ('O=C(O)CCCCCCCC(=O)O', 'label 1'),
  ('CCN1CCN(c2cc3c(cc2F)c(=O)c(C(=O)O)cn3C2CC2)CC1', 'label 0'),
  ('C[C@H]1COc2c(C3(N)CC3)c(F)cc3c(=O)c(C(=O)O)cn1c23', 'label 0'),
  ('CN(C)c1ccc(C(=C2C=CC(=[N+](C)C)C=C2)c2ccc(N(C)C)cc2)cc1', 'label 1'),
  ('NC(=O)NO', 'label 1'),
  ('CCn1cc(C(=O)O)c(=O)c2cc3c(cc21)OCO3', 'label 1'),
  ('O=c1c(O)c(-c2ccc(O)c(O)c2)oc2cc(O)cc(O)c12', 'label 1'),
  ('Nc1[nH]c(=O)ncc1F', 'label 0');

###

- ASSAY REMARKS: viability loss with induced miR-34 in A549 – imaging, A549 dox-inducible miR-34, nuclei and caspase counts, primary screen (AID 1347080)
- CONDITIONS: A549 miR-34 inducible, Hoechst nuclei count, 48 h; measured here: total cells without miR-34 induction
Lab note: compare cell count with 9000, writing Met if less and Not met if equal or more.

INSERT INTO measurements (compound, label) VALUES
  ('Oc1c(I)cc(I)c2cccnc12', 'Not met'),
  ('CN1CCC(=C2c3ccccc3Sc3ccccc32)CC1', 'Met'),
  ('CN1CCN(c2cc3c(cc2F)c(=O)c(C(=O)O)cn3-c2ccc(F)cc2)CC1', 'Met'),
  ('CN(C)CC[C@@H](c1ccc(Br)cc1)c1ccccn1', 'Not met'),
  ('C[C@](N)(Cc1ccc(O)cc1)C(=O)O', 'Not met'),
  ('CCCCC(CC)CN1CN(CC(CC)CCCC)CC(C)(N)C1 (stereo unspecified)', 'Not met'),
  ('CC(NCCC(c1ccccc1)c1ccccc1)c1ccccc1 (stereo unspecified)', 'Met'),
  ('COc1ccc(-c2cc(C(F)F)nn2-c2ccc(S(N)(=O)=O)cc2)cc1F', 'Not met'),
  ('CC(=O)O[C@H]1C[C@@H]2CC[C@@H]3[C@H](CC[C@@]4(C)[C@H]3C[C@H]([N+]3(C)CCCCC3)[C@@H]4OC(C)=O)[C@@]2(C)C[C@@H]1N1CCCCC1', 'Not met'),
  ('CC[C@]12CCCN3CCc4c(n(c5ccccc45)[C@@](O)(C(=O)OC)C1)[C@@H]32', 'Not met'),
  ('CC(C)NC[C@@H](O)COc1cccc2ccccc12', 'Met'),
  ('NC(Cc1ccc(Cl)cc1)C(=O)O (stereo unspecified)', 'Not met'),
  ('CC(=O)Nc1ccc(CC(=O)O)cc1', 'Not met'),
  ('CC(=O)Nc1c(I)cc(I)c(C(=O)O)c1I', 'Not met'),
  ('C=CCc1ccc(O)c(OC)c1', 'Not met'),
  ('O=C(O)c1ccccc1OP(=O)(O)O', 'Not met'),
  ('CC1CC(OC(=O)C(O)c2ccccc2)CC(C)(C)N1C (stereo unspecified)', 'Not met'),
  ('C=C[C@@]1(C)CC(=O)[C@]2(O)[C@@]3(C)[C@@H](O)CCC(C)(C)[C@@H]3[C@H](O)[C@H](OC(C)=O)[C@@]2(C)O1', 'Not met'),
  ('O=C(OCC(O)CO)c1ccccc1Nc1ccnc2cc(Cl)ccc12 (stereo unspecified)', 'Not met'),
  ('C#CCN[C@@H]1CCc2ccccc21', 'Not met'),
  ('CCCCC(CC)CN=C(N)NC(N)=NCCCCCCN=C(N)NC(N)=NCC(CC)CCCC (stereo unspecified)', 'Met'),
  ('CC(C(=O)O)c1ccc(CC2CCCC2=O)cc1 (stereo unspecified)', 'Not met'),
  ('CCN(CC)CCOC(=O)C(c1ccccc1)C1CCCCC1 (stereo unspecified)', 'Not met'),
  ('CC1(C)O[C@@H]2C[C@H]3[C@@H]4CCC5=CC(=O)CC[C@]5(C)[C@@]4(F)[C@@H](O)C[C@]3(C)[C@]2(C(=O)CCl)O1', 'Met'),
  ('Nc1nc(=S)c2[nH]cnc2[nH]1', 'Met'),
  ('Oc1ccc(Cl)c2cccnc12', 'Not met'),
  ('O=C(O)c1ccc(S(=O)(=O)N(Cl)Cl)cc1', 'Not met'),
  ('NC(=O)NC(=O)Cc1ccccc1', 'Not met'),
  ('CC(=O)OC/C=C(C)/C=C/C=C(C)/C=C/C1=C(C)CCCC1(C)C', 'Not met'),
  ('CCOC(N)=O', 'Not met'),
  ('O=c1[nH]c(=O)n([C@H]2C[C@H](O)[C@@H](CO)O2)cc1F', 'Met'),
  ('CC(=O)[C@@]1(O)CC[C@H]2[C@@H]3C[C@H](C)C4=CC(=O)C=C[C@]4(C)[C@@]3(F)[C@@H](O)C[C@@]21C', 'Met'),
  ('COc1cc(C)c(Cc2cnc(N)nc2N)cc1OC', 'Not met'),
  ('Nc1c2ccccc2nc2ccccc12', 'Met'),
  ('Oc1c(Br)cc(Br)c2cccnc12', 'Met'),
  ('CCn1cc(C(=O)O)c(=O)c2cnc(N3CCNCC3)nc21', 'Not met'),
  ('CCC(=O)O[C@H]1[C@H](O[C@@H]2[C@@H](C)[C@H](O[C@H]3C[C@@](C)(OC)[C@@H](O)[C@H](C)O3)[C@@H](C)C(=O)O[C@H](CC)[C@@](C)(O)[C@H](O)[C@@H](C)C(=O)[C@H](C)C[C@@]2(C)O)O[C@H](C)C[C@@H]1N(C)C', 'Not met'),
  ('CCCCCCc1ccc(O)cc1O', 'Not met'),
  ('Nc1ncnc2c1ncn2[C@@H]1O[C@H](CO)[C@@H](O)[C@H]1O', 'Not met'),
  ('CC(=O)NO', 'Not met'),
  ('CC1(C)S[C@@H]2[C@H](NC(=O)C(C(=O)O)c3ccccc3)C(=O)N2[C@H]1C(=O)O (stereo partly specified)', 'Not met');
